Overview of recorded pKd for various binders
# target system: T1, activin A (UniProt P08476 311-426)
# T1 construct: also called ActA
# T1 sequence (looked up): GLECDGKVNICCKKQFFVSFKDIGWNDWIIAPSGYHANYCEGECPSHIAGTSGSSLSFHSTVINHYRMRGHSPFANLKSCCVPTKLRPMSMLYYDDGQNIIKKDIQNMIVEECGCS
# test description: SPR (Biacore); receptor-Fc captured by anti-hFc antibody, ligand injected
The quantity pKd is defined as the negative base-10 logarithm of the molar concentration.

binder	pKd
ActRIIB(20-134)-hFc (Fc fusion, also called ActRIIB-hFc) GRGEAETRECIYYNANWELERTNQSGLERCEGEQDKRLHCYASWRNSSGTIELVKKGCWLDDFNCYDRQECVATEENPQVYFCCCEGNFCNERFTHLPEAGGPEVTYEPPPTAPTGGGTHTCPPCPAPELLGGPSVFLFPPKPKDTLMISRTPEVTCVVVDVSHEDPEVKFNWYVDGVEVHNAKTKPREEQYNSTYRVVSVLTVLHQDWLNGKEYKCKVSNKALPVPIEKTISKAKGQPREPQVYTLPPSREEMTKNQVSLTCLVKGFYPSDIAVEWESNGQPENNYKTTPPVLDSDGSFFLYSKLTVDKSRWQQGNVFSCSVMHEALHNHYTQKSLSLSPGK	10.57

For the next question, use this binder.
pKd lookup needed for ActRIIB(P129S, P130R 20-134)-hFc (Fc fusion) GRGEAETRECIYYNANWELERTNQSGLERCEGEQDKRLHCYASWRNSSGTIELVKKGCWLDDFNCYDRQECVATEENPQVYFCCCEGNFCNERFTHLPEAGGPEVTYEPSRTAPTGGGTHTCPPCPAPELLGGPSVFLFPPKPKDTLMISRTPEVTCVVVDVSHEDPEVKFNWYVDGVEVHNAKTKPREEQYNSTYRVVSVLTVLHQDWLNGKEYKCKVSNKALPVPIEKTISKAKGQPREPQVYTLPPSREEMTKNQVSLTCLVKGFYPSDIAVEWESNGQPENNYKTTPPVLDSDGSFFLYSKLTVDKSRWQQGNVFSCSVMHEALHNHYTQKSLSLSPGK , thanks.
10.08
